Values from PubChem BioAssay AID1159580

Consider the following compounds; for each one, report its normalized growth.
# Protocol Details: chemical genetic growth profiling, strain panel (AID 1159580);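 note: tested at 20 µM; growth read once vehicle control cultures reached saturation at 30 °C; 1 = growth at the plate median or of vehicle wells; lower values mean less growth of the strain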
# Measurement Parameters: S. cerevisiae deletion strains, growth OD, locus YER167W, strain BCK2, active compounds read low
Screen size: about 5,500 compounds; about 2,000 (36%) were called active. Another 18% or so got no clear call; they are omitted. The list shows a part of the results.

Query :: What normalized growth value was documented for this compound, COc1c(CC=C(C)C)c2c(c3oc(=O)c(-c4ccc(O)cc4)c(O)c13)C=CC(C)(C)O2 ?
Result :: 0.951 (inactive)

Query :: Name the recorded normalized growth for COc1cc(O)c2c(=O)cc(C)oc2c1CC=C(C)C .
Result :: 0.893 (active)

Query :: I'd like to know its normalized growth. The compound in question is Oc1c(Cl)c(Cl)c(Cl)c(Cl)c1Cl
Result :: 0.659 (active)

Query :: Recorded normalized growth for CC(=O)[C@H]1CCC2C3C[C@H](C)C4=CC(=O)CC[C@]4(C)C3[C@@H](O)C[C@@]21C (stereo partly drawn) , please?
Result :: 0.986 (inactive)

Query :: Item under review: COc1c(O)cc2oc3cc(O)c(CC=C(C)C)c(O)c3c(=O)c2c1CC=C(C)C . Reported normalized growth?
Result :: 0.792 (active)

Query :: Recorded normalized growth for C1CCc2nnnn2CC1 , please?
Result :: 1 (inactive)

Query :: Fill blank: measured normalized growth of the compound Cc1cc(C(C)(C)CC(C)(C)C)ccc1OCCOCC[N+](C)(C)Cc1ccccc1 is ____.
Result :: 0.0531 (active)

Query :: // returns reported normalized growth for input C=C(C)/C=C1/C=CC(=O)C(C)=C1
Result :: 0.151 (active)

Query :: Param item = Cc1c(O)cc(O)c2c(=O)c(-c3ccc(O)cc3)coc12 ; retrieve measured normalized growth.
Result :: 1 (inactive)

Query :: Can you look up the measured normalized growth of COc1c(CC=C(C)C)c2c(c3oc(=O)c(-c4ccc(OC(C)=O)cc4)c(OC(C)=O)c13)C=CC(C)(C)O2 for me?
Result :: 1.02 (inactive)

Query :: Name the reported normalized growth value associated with the compound Cc1cc(=O)c2c(O)cc(O)c(C)c2o1
Result :: 1 (inactive)

Query :: Look at this compound and give its reported normalized growth. Cc1cc(=O)c2c(O)c(C)c(O)cc2o1
Result :: 1.01 (inactive)

Query :: Fill blank: measured normalized growth of the compound CC(=O)O[C@]1(C(C)=O)CCC2C3C=C(C)C4=CC(=O)CCC4(C)C3CCC21C (stereo partly drawn) is ____.
Result :: 0.88 (active)

Query :: Reported normalized growth for Cn1cc[nH]c1=S : what is it?
Result :: 1 (inactive)

Query :: Name the recorded normalized growth for Cc1c(N(C)C)c(=O)n(-c2ccccc2)n1C .
Result :: 0.99 (inactive)

Query :: I would be grateful if you could share the reported normalized growth for COc1cc2c(cc1OC)C(=O)C(CC1CCN(Cc3ccccc3)CC1)C2 (stereo not drawn) .
Result :: 0.829 (active)

Query :: What value of normalized growth has been recorded for this entry: COc1ccc(-c2c(O)c3cc4c(c(CC=C(C)C)c3oc2=O)OC(C)(C)CC4)cc1
Result :: 1.01 (inactive)

Query :: Requested read-out: normalized growth. Entry: O=[N+]([O-])O[C@H]1CO[C@H]2[C@@H]1OC[C@H]2O[N+](=O)[O-]
Result :: 1.02 (inactive)
